Entries and their measured EC50 follow.
- Study system: GABAA receptor
- Assay text: [3H]Flunitrazepam binding assay (enhancement) in rat brain cerebral cortex homogenates
- Recorded conditions: rat cortical membranes, 1.0 μM GABA, 1.0 nM [3H]flunitrazepam; mean±SD
// return numeric value only (unit: nM, not printed)

Completed entries (count: 3):
CN(C)c1ccc([C@H]2C[C@@]3(C)C(CC[C@@H]3[N+](=O)[O-])C3CC[C@H]4C[C@](C)(O)CCC4C32)cc1 (stereo partly shown) | 39.5
C[C@@]1(O)CC[C@@]2(C)[C@@H](CC[C@@H]3[C@@H]2CC[C@]2(C)[C@@H]([N+](=O)[O-])CC[C@@H]32)C1 | 33.5
C[C@]12CC[C@@H](O)C[C@@H]1CC[C@@H]1[C@@H]2CC[C@]2(C)[C@@H]([N+](=O)[O-])CC[C@@H]12 | 24

// next entry
Which value of EC50 has been reported for CS[C@H]1CCC2C3CC[C@H]4C[C@H](O)CC[C@]4(C)C3CC[C@@]21C (stereo partly drawn) [Compound B-5, 3α-Hydroxy-17β-thiomethyl-5α-androstane] in the records?
75.9

====

Below, each entry is listed alongside its reported pIC50.
- Study system: GABAA receptor
- Assay text: [35S]TBPS binding assay in rat brain cerebral cortex homogenates
- Recorded conditions: rat cortical membranes, 6.25 μM GABA, 2 nM [35S]TBPS; mean±SD
pIC50 is a log-scale quantity: -log10 of the concentration expressed in molar.

For orientation, consider the following solved cases.
CS[C@H]1CCC2C3CC[C@H]4C[C@H](O)CC[C@]4(C)C3CC[C@@]21C (stereo partly drawn) [Compound B-5, 3α-Hydroxy-17β-thiomethyl-5α-androstane] | 7.49
C[C@@]1(O)CC[C@@]2(C)[C@@H](CC[C@@H]3[C@@H]2CC[C@]2(C)[C@@H]([N+](=O)[O-])CC[C@@H]32)C1 [Compound A2-B] | 7.75
C[C@]12CC[C@@H](O)C[C@@H]1CC[C@@H]1[C@@H]2CC[C@]2(C)[C@@H]([N+](=O)[O-])CC[C@@H]12 [Compound A2-A, 17β-Nitro-5α-androstan-3α-ol] | 7.89

Read the next record carefully.
Entry CN(C)c1ccc([C@H]2C[C@@]3(C)C(CC[C@@H]3[N+](=O)[O-])C3CC[C@H]4C[C@](C)(O)CCC4C32)cc1 (stereo partly shown) [Compound C-8] : reported pIC50 = ?
8.01

====

- System: GABAA receptor
- Assay text: [3H]Flunitrazepam binding assay (enhancement) in rat brain cerebral cortex homogenates
- Recorded conditions: percentage of Emax determined for allopregnanolone
Some compounds, each annotated with its measured [3H]Flunitrazepam Emax.
API: value field is a number in %; no unit string.

Previously resolved entries follow.
C[C@@]1(O)CC[C@@]2(C)[C@@H](CC[C@@H]3[C@@H]2CC[C@]2(C)[C@@H]([N+](=O)[O-])CC[C@@H]32)C1 [Compound A2-B] | 99.1
CN(C)c1ccc([C@H]2C[C@@]3(C)C(CC[C@@H]3[N+](=O)[O-])C3CC[C@H]4C[C@](C)(O)CCC4C32)cc1 (stereo partly shown) [Compound C-8] | 135
CS[C@H]1CCC2C3CC[C@H]4C[C@H](O)CC[C@]4(C)C3CC[C@@]21C (stereo partly drawn) [Compound B-5, 3α-Hydroxy-17β-thiomethyl-5α-androstane] | 131.7

Consider the additional compound presented here.
Observed [3H]Flunitrazepam Emax on GABAA receptor for C[C@]12CC[C@@H](O)C[C@@H]1CC[C@@H]1[C@@H]2CC[C@]2(C)[C@@H]([N+](=O)[O-])CC[C@@H]12 [Compound A2-A, 17β-Nitro-5α-androstan-3α-ol] , please.
103
